Measured inhibition, listed per entry.
system_name: Casein kinase I isoform gamma-3 (Homo sapiens);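 also: reported value is the mean percent inhibition of the kinase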
setup_conditions: at 0.1 µM
Give just the numeric value; % need not be written.

{"structure_as_smiles": "CN(C)c1ccc2c(c1)/C(=C/Nc1ccc(S(N)(=O)=O)cc1)C(=O)N2", "units_of_measure": "%", "inhibition": 0.48}
{"structure_as_smiles": "NC(=O)c1ccc(Oc2nccc(-c3c(-c4ccc(F)cc4)ncn3C3CCNCC3)n2)cc1", "units_of_measure": "%", "inhibition": 4.74}
{"structure_as_smiles": "O=C(Nc1ccc(Oc2ccc3[nH]c(NC(=O)c4ccccc4)nc3c2)cc1)Nc1cc(C(F)(F)F)ccc1F", "units_of_measure": "%", "inhibition": 1.5}

Kindly review the next molecule as well.
Record COc1cc(N2CCN(C(C)C)CC2)ccc1Nc1nc(Nc2ccc(F)cc2C(=O)NC[C@@H](O)CO)c2cc[nH]c2n1 . Reported inhibition: 2.74

----------
Item-by-item account of inhibition
system_name: Phosphorylase b kinase gamma catalytic chain, skeletal muscle/heart isoform (Homo sapiens);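 also: each value is a mean percent inhibition of PHKG1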
setup_conditions: at 1 µM
Respond with the bare value in %.

{"structure_as_smiles": "C#Cc1cccc(Nc2ncnc3ccc(OCCCCNCCS(C)(=O)=O)cc23)c1", "inhibition, %": 19}
{"structure_as_smiles": "COC(=O)Nc1nc2ccc(Sc3ccc(NC(=O)Nc4cc(C(F)(F)F)ccc4F)cc3)cc2[nH]1", "inhibition, %": -0.17}

Please find the next compound below.
In plain terms, CNC(=O)c1cncc(/C=C/c2c(C)cccc2C)c1 has a documented inhibition of -0.59

----------
system_name: Insulin receptor-related protein (Homo sapiens);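 also: mean percent inhibition of IRR, reported within the GSK PKIS screening panel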
setup_conditions: at 0.1 µM
property: inhibition (%)
A number alone suffices; assume %.

Field: example entries. Status: answers known.
{"structure_as_smiles": "NC(=O)Cc1ccccc1Oc1nccc(-c2c(-c3ccc(F)cc3)ncn2C2CCNCC2)n1", "inhibition, %": 0.84}
{"structure_as_smiles": "NS(=O)(=O)c1ccc(N/N=C2\\C(=O)Nc3ccc(C(=O)NCCCn4ccnc4)cc32)cc1", "inhibition, %": 2.1}

Recorded inhibition (molecule FC(F)(F)c1cccc(Nc2nccc(-c3cnn4nc(-c5ccccc5)ccc34)n2)c1 ): 0.93

Lab book: inhibition of COc1cccc(-n2cnc3c(N/N=C/c4ccncc4)ncnc32)c1 noted as 1

Measured inhibition, C/C(Nc1ccc(S(N)(=O)=O)cc1)=C1/C(=O)Nc2ccccc21 : -2.56

----------
system_name: Tyrosine-protein kinase Lyn (Homo sapiens) (UniProt P07948);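 also: mean inhibition of the LYN A splice variant of the kinase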
Sequence (P07948 2-512 limits assumed): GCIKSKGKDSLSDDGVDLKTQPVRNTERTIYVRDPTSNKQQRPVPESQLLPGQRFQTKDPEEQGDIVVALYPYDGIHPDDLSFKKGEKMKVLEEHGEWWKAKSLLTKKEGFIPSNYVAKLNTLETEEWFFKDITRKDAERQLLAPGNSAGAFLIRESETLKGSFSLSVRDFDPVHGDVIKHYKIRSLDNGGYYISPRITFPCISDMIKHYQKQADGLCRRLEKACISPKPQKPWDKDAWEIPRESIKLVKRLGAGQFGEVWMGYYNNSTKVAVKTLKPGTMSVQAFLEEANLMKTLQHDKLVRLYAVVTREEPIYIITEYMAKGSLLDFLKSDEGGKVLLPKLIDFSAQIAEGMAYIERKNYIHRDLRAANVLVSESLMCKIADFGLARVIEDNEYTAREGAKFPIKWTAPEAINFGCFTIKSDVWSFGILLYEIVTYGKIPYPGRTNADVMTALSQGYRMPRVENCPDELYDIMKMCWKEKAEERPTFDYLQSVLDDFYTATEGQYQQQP
setup_conditions: at 0.1 µM
Description: GSK_PKIS: LYN A (splice variant) mean inhibition at 0.1 uM [Nanosyn]
property: inhibition
Write the numeric value and append its unit.

// known answers, use as guide
{"molecule": "Fc1ccc(-c2ncn(CCCN3CCOCC3)c2-c2ccncc2)cc1", "system_name": "Tyrosine-protein kinase Lyn (Homo sapiens) (UniProt P07948)", "inhibition": "-0.59%"}
{"molecule": "COc1cc2ncn(-c3cc(OCc4cccs4)c(C(N)=O)s3)c2cc1OC", "system_name": "Tyrosine-protein kinase Lyn (Homo sapiens) (UniProt P07948)", "inhibition": "4.29%"}
{"molecule": "NS(=O)(=O)c1ccc(N/N=C2\\C(=O)Nc3ccc(C(=O)NCCCn4ccnc4)cc32)cc1", "system_name": "Tyrosine-protein kinase Lyn (Homo sapiens) (UniProt P07948)", "inhibition": "6.54%"}
{"molecule": "O=C1NC(=O)C(c2cccc(Cl)c2)=C1Nc1ccc(Cl)c(C(=O)O)c1", "system_name": "Tyrosine-protein kinase Lyn (Homo sapiens) (UniProt P07948)", "inhibition": "3.89%"}
{"molecule": "COc1ccc2cc(-c3c(-c4ccncc4)nc(-c4ccc([S+](C)[O-])cc4C)n3C)ccc2c1 (stereo unspecified)", "system_name": "Tyrosine-protein kinase Lyn (Homo sapiens) (UniProt P07948)", "inhibition": "2%"}
{"molecule": "Nc1nccc(-c2c(-c3ccc(F)cc3)ncn2C2CCC(O)CC2)n1 (stereo unspecified)", "system_name": "Tyrosine-protein kinase Lyn (Homo sapiens) (UniProt P07948)", "inhibition": "3.13%"}

Sample COC(=O)Nc1nc2ccc(Sc3ccc(NC(=O)Nc4cc(C(F)(F)F)ccc4F)cc3)cc2[nH]1 ; inhibition observed: 5.69%

Input COc1cc(C)c(N(C)C(=O)CN(C)C)cc1Nc1nc(Nc2cccc(F)c2C(N)=O)c2cc[nH]c2n1 . Output inhibition: 0.96%

For this molecule ( Cc1nnc(-c2ccc(C)c(-c3ccc(C(=O)NCc4ccc(Cl)cc4)cc3)c2)o1 ), measured inhibition is 3.85%

Form field inhibition, entry Fc1ccc(-c2ncn(C3CCNCC3)c2-c2ccnc(Oc3ccc(Oc4ccccc4)cc3)n2)cc1 : 3.46%

# molecule c1ccc(-c2n[nH]cc2-c2ccnc(-c3ccc(OCCN4CCOCC4)cc3)c2)nc1 ; its inhibition = 1.31%

For NC(=O)c1cc(-c2ccc(F)cc2)cc(-c2ccncc2)c1N the molecule record lists inhibition as 7.55%

The origin of these recorded values is ChEMBL document CHEMBL1961873.
